Method description: SK-BR-3 cell growth inhibitors, pilot screen, 24 h, human (AID 572);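 also: compound exposure lasted between 18 and 24 h rather than exactly 24 h; 100% = carrier-treated control wells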
Details: SK-BR-3 viability, CellTiter-Glo luminescence, at 10 µM, active compounds read low
Calls of active or inactive are those of the source.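 The calls were made as follows: active = viability at or below 10% of carrier control in both of two separate runs; inconclusive = viability at or below 10% in only one of the two runs; inactive = the rest.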
Readout label: viability

# annotated cases, reported viability shown
[[record]]
molecule = "O=C(Nc1ccon1)c1cc(-c2ccccc2)nc2ccccc12"
readout_label = "viability"
result = "91% (inactive)"

[[record]]
molecule = "CCC1(C)Cc2c(sc3nc(SCC(=O)O)[nH]c(=O)c23)CO1 (stereo not drawn)"
readout_label = "viability"
result = "111% (inactive)"

[[record]]
molecule = "COc1ccc(C(=O)Nc2ccc(Cl)c(Cl)c2)c(OC)n1"
readout_label = "viability"
result = "93% (inactive)"

[[record]]
molecule = "COCCCn1nnnc1SCC(=O)Nc1nc(C)c(C)s1"
readout_label = "viability"
result = "109% (inactive)"

[[record]]
molecule = "CCOC(=O)c1sc(Nc2nc3c(OC)cccc3s2)nc1C"
readout_label = "viability"
result = "81.5% (inactive)"

[[record]]
molecule = "Oc1ccc(N2CCN(C(c3cccnc3)c3nnnn3Cc3ccccc3)CC2)cc1 (stereo not drawn)"
readout_label = "viability"
result = "85% (inactive)"

[[record]]
molecule = "O=C(CN1CCC(O)(c2ccc3c(c2)OCO3)CC1)OC1CCCCC1"
readout_label = "viability"
result = "83% (inactive)"

[[record]]
molecule = "COC(=O)c1ccccc1NC(=O)Nc1cccs1"
readout_label = "viability"
result = "99.5% (inactive)"

[[record]]
molecule = "O=C(Cn1cnc2c(nnn2-c2ccc(F)cc2)c1=O)NCc1ccco1"
readout_label = "viability"
result = "97% (inactive)"

[[record]]
molecule = "Cc1nnc2c3ccccc3c(-c3ccccc3)nn12"
readout_label = "viability"
result = "88% (inactive)"


Incoming: For the molecule shown here, Cc1ccc(NC(=O)CSC2=C(C#N)C(c3ccc4c(c3)OCO4)CC(=O)N2)cc1C (stereo not drawn) , give the reported viability.
Outgoing: 64% (inactive)

Incoming: Look up viability for this molecule: CCN(CC)C(c1ccc(C)cc1)c1nnnn1C1CCCCC1 (stereo not drawn)
Outgoing: 64% (inactive)

Incoming: GET /values?readout=viability&item= "CCN(CC(=O)Nc1ccc2c(c1)CCC2)Cc1nc2ccccc2c(=O)[nH]1"
Outgoing: 77% (inactive)

Incoming: Sample "O=C(NCCSCc1ccco1)Nc1cccc(Cl)c1" — what was its viability?
Outgoing: 83.5% (inactive)

Incoming: Entry under review: "COc1cccc(C(=O)Nc2ccc(NC(C)=O)cn2)c1" . Reported viability?
Outgoing: 98% (inactive)

Incoming: Return reported viability; argument: "COc1ccc2c(c1)c(CC(=O)O)c(C)n2C(=O)c1ccc(Cl)cc1"
Outgoing: 99% (inactive)

Incoming: Requested read-out: viability. Entry: "CCOc1ccc(CCNC(=O)CCc2nc(-c3ccc(OC)cc3)no2)cc1OCC"
Outgoing: 86.5% (inactive)

Incoming: Any idea what its viability is? The molecule is O=C1c2ccccc2C(Nc2ccc3c(c2)OCCO3)N1Cc1ccco1 (stereo not drawn)
Outgoing: 106% (inactive)

Incoming: Param item = CCOC(=O)C1CCCN(Cc2nc(N)nc(Nc3ccccc3)n2)C1 (stereo not drawn) ; retrieve measured viability.
Outgoing: 100% (inactive)

Incoming: Value lookup for viability; key = "CCOc1nc(NCCC2=CCCCC2)nc(N2CCOCC2)n1"
Outgoing: 102% (inactive)

Incoming: Report viability for "CCOC(=O)C1CCN(c2c(NC3CCCCCCC3)c(=O)c2=O)CC1" please.
Outgoing: 90% (inactive)

Incoming: Please report the recorded viability for "CCC(CC)n1[nH]c(=O)c2c(C)cc(C)nc21" .
Outgoing: 81% (inactive)

Incoming: Look up viability for this molecule: "Cc1ccc(NC(=O)c2ccco2)c(NC(=O)CN2C(=O)c3ccccc3C2=O)c1"
Outgoing: 97% (inactive)
